Tested on: TO-3-N3 (biotin conjugate)
procedure-text: pull-down binding Z-score (relative to library population); higher = stronger binding
experimental-setup: RNA library: Library-2
Classification scheme (pull-down binding Z-score): low = under -0.5, mid = from -0.5 up to -0.08, high = -0.08 and over

Consider the worked cases shown below.
GGUUGGGGUGGGCUGCCUGUGGACCAAUC [hsa-mir-4525]	high
ACAAGGCUAUUGAUGGUGGUGUCACUCGUGACAUAGCAUCUACAGAUACUUGU [SHAPE_invitro_SARS-CoV-2_Motif_170]	mid
GGUACGUUAAUAGUUAAUAGCGUACUUCUUUUUCUUGCUUUCGUGGUAUUCUUGCUAGUUACACUAGCCAUCCUUACUGCGCUUCGAUUGUGUGCGUACU	high
UUGCUUAAG [hsa-mir-924]	high

Please indicate the class for AGGGCUGGGAUUACUAAAGCCCU [hsa-mir-1266] based on its pull-down binding Z-score.
high

Please indicate the class for `AGGUCCAGACAUGUUCCUCGGAACUUGUCGGCGUUGUCCU` based on its pull-down binding Z-score.
low

###

Tested on: TO-3-N3 (biotin conjugate)
procedure-text: pull-down binding Z-score (relative to library population); higher = stronger binding
experimental-setup: RNA library: Library-2
Some sequences, each annotated with its measured pull-down binding Z-score.
Please reply with the value in numeric form only.

GGAAAGGGGAUGCAGAGCCCUGCC [hsa-mir-4647]	1.28
CAUUCACAUAGACUAUAAUUGAAUG [hsa-mir-652]	-0.751
UCUGGGGAGAGAGUCCUCUUUUCAGC [hsa-mir-8082]	0.432

What measured pull-down binding Z-score goes with GAUCCUUUGUUCUGGAUC [hsa-mir-7856] ?
0.118

What measured pull-down binding Z-score goes with CGAGACACAGAAACAGACACCUGCCCUCGA [hsa-mir-151b] ?
0.442

What measured pull-down binding Z-score goes with GGUGCAGUCAGUCCUAGCUC [hsa-mir-3135b] ?
-0.343

What measured pull-down binding Z-score goes with `CCACAUUUUCACCGAGGCCACGCGGAGUACGAUCGAGUGUACAGUGAACAAUGCUAGG` ?
-0.147

What measured pull-down binding Z-score goes with AGAGCGUGGGCUGGGGUUCAGGGACACCCUCU [hsa-mir-1229] ?
1.15

What measured pull-down binding Z-score goes with UGGGAGUGAUCCCAACAGCUGAGCUCCCU [hsa-mir-7106] ?
0.772

What measured pull-down binding Z-score goes with `AUAACAAUACUAGAUGGAAUUUCACAGUAUUCACUGAGACUCAUUGAUGCUAUGAUGUUCACAUCUGAUUUGGCUACUAACAAUCUAGUUGU` ?
0.311

What measured pull-down binding Z-score goes with CAGGCCAGGGGCAGACAGUGGACAGAGAACAGUGCCCAAGACCACUG [hsa-mir-378e] ?
0.426

What measured pull-down binding Z-score goes with GCUGAGCCCUUUGAUAAGGGGGAGGUU [hsa-mir-8080] ?
0.21

What measured pull-down binding Z-score goes with GCGCUUUAGGUCUACACGGGCCGAAGCUAACGCGUUAAGCGC [3-way model-5_mrRNA] ?
0.146

What measured pull-down binding Z-score goes with GGCGACUGGUGUCUAAUUUGUUUGUC [hsa-mir-4429] ?
-0.313

What measured pull-down binding Z-score goes with AUGCCCCAGGUGACGUGCUGGGCU [hsa-mir-4526] ?
0.205

What measured pull-down binding Z-score goes with `GUAGAGGAGGCAAAGACAGUGCUUAAAAAGUGUAAAAGUGCCUUUUAC` ?
-0.449

What measured pull-down binding Z-score goes with CCCGAGCUGGGCAGCAUGAAGGGCCUCGGG [hsa-mir-486-2] ?
1.74

What measured pull-down binding Z-score goes with AUGUGAUGUGAGCAGAUGGUUCUCACU [hsa-mir-6758] ?
-0.532

What measured pull-down binding Z-score goes with GGCUGGACAGGAGAGGGCUCACCCAGG [hsa-mir-6775] ?
1.16

What measured pull-down binding Z-score goes with CUGUUCAGGACUCCCAAAUUGUACAG [hsa-mir-199b] ?
1.12

What measured pull-down binding Z-score goes with `GUGUAAAAGUGCCUUUUACAU` ?
-0.525

What measured pull-down binding Z-score goes with GCUGAGUUGCCAUUCAGC [IAV_invivo_NA_6_Motif_18+IAV_invivo_NA_6_Motif_18] ?
-0.302
